System under test: Caspase-3 (Homo sapiens, UniProt P42574)
Sequence (P42574 29-175 limits assumed): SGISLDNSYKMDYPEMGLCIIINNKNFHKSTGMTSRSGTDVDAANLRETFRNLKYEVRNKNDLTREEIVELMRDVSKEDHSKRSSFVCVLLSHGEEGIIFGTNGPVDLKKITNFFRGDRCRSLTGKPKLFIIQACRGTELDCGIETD
Sequence (P42574 176-277 limits assumed): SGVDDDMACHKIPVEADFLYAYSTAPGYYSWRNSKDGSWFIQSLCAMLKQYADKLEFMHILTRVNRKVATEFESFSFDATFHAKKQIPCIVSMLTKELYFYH
Measurement protocol: Inhibitory concentration against caspase-3
Endpoint label: IC50 (nM)
Just the number please, in nM, no unit attached.

# count of solved cases: 3
1. CC(C)C[C@H](NC(=O)COc1ccc(C23CC4CC(CC(C4)C2)C3)cc1)C(=O)N[C@H]1CC(=O)OC1O (some centres undefined) :: 528
2. CC(C)C[C@H](NC(=O)CCOc1ccccc1)C(=O)N[C@H]1CC(=O)OC1O (some centres undefined) :: 419
3. CC(C)C[C@H](NC(=O)COc1cccc2ncccc12)C(=O)N[C@H]1CC(=O)OC1O (some centres undefined) :: 412

query: Sample Cc1ccc(OCC(=O)N[C@@H](CC(C)C)C(=O)N[C@H]2CC(=O)OC2O)c(C23CC4CC(CC(C4)C2)C3)c1 (some centres undefined) — what was its IC50?
result: 474

query: Sample CC(C)C[C@H](NC(=O)COc1ccc(Oc2ccccc2)cc1)C(=O)N[C@H]1CC(=O)OC1O (some centres undefined) — what was its IC50?
result: 545

###

System under test: Caspase-6 (Homo sapiens, UniProt P55212)
Sequence (P55212 24-179 limits assumed): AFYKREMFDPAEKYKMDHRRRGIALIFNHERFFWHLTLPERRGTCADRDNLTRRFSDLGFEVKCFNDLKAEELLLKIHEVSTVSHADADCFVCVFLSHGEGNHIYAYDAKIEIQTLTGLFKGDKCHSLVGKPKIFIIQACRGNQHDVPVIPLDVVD
Sequence (P55212 194-293 limits assumed): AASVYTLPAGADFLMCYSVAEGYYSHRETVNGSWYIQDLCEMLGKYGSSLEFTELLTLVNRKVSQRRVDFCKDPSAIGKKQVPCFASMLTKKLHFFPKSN
Measurement protocol: Inhibitory concentration of compound required against Caspase-6 compared to acylated dipeptides
Endpoint label: pIC50
FYI, pIC50 means -log10 of a concentration in mol per litre.

# count of solved cases: 2
1) CC(C)C[C@H](NC(=O)[C@H](Cc1ccccc1)NC(=O)OCc1ccccc1)C(=O)N[C@H]1CC(=O)OC1O (stereo partly drawn) :: 5.60
2) CC(C)C[C@H](NC(=O)COc1ccc2ccccc2c1)C(=O)N[C@H]1CC(=O)OC1O (stereo partly drawn) :: 4.73

query: Sample CC(=O)N[C@@H](C(=O)O)C(=O)N[C@@H](CCC(=O)O)C(=O)N[C@H](C(=O)N[C@H]1CC(=O)OC1O)C(C)C (stereo partly drawn) — what was its pIC50?
result: 8.00

###

System under test: Caspase-8 (Homo sapiens, UniProt Q14790)
Sequence (Q14790 217-374 limits assumed): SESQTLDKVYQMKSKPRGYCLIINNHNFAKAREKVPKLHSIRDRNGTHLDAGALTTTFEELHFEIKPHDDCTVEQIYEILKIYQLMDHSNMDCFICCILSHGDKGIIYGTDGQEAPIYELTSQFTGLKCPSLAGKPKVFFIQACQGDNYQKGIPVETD
Sequence (Q14790 385-479 limits assumed): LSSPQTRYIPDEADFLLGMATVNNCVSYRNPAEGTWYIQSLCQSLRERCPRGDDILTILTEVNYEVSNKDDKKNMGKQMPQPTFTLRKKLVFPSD
Measurement protocol: Inhibitory concentration against caspase-8
Endpoint label: IC50 (µM)
Just the number please, in µM, no unit attached.

# count of solved cases: 8
1. CC(C)C[C@H](NC(=O)COc1ccccc1Cc1ccccc1)C(=O)N[C@H]1CC(=O)OC1O (stereo partly specified) :: 6.05
2. CC(C)C[C@H](NC(=O)CCOc1cccc2ccccc12)C(=O)N[C@H]1CC(=O)OC1O (stereo partly specified) :: 9.81
3. CC(C)C[C@H](NC(=O)CCSc1cccc2ccccc12)C(=O)N[C@H]1CC(=O)OC1O (stereo partly specified) :: 16.3
4. CC(C)C[C@H](NC(=O)COc1c(Cl)cc(Cl)c2ccccc12)C(=O)N[C@H]1CC(=O)OC1O (stereo partly specified) :: 3.04
5. CC(C)[C@@H](NC(=O)OCc1ccccc1)C(=O)C[C@H]1CC(=O)OC1O (stereo partly specified) :: 12
6. CC(C)C[C@H](NC(=O)CC(=O)c1cccc2ccccc12)C(=O)N[C@H]1CC(=O)OC1O (stereo partly specified) :: 11.2
7. Cc1ccc2ccccc2c1OCC(=O)N[C@@H](CC(C)C)C(=O)N[C@H]1CC(=O)OC1O (stereo partly specified) :: 4.14
8. CC(C)C[C@H](NC(=O)COc1cccc2cccnc12)C(=O)N[C@H]1CC(=O)OC1O (stereo partly specified) :: 2.24

query: Sample CC(C)C[C@H](NC(=O)CCSc1ccc2ccccc2c1)C(=O)N[C@H]1CC(=O)OC1O (stereo partly specified) — what was its IC50?
result: 15

query: Sample CC(C)C[C@H](NC(=O)CSc1cccc2ccccc12)C(=O)N[C@H]1CC(=O)OC1O (stereo partly specified) — what was its IC50?
result: 7.42
